The values you see were collected from patent US20250152746A1.

The entries below come with measured Cyno Primary Hepatocyte Editing % 500 values attached.
Tested on: PCSK9 gene
test_method_notes: PCSK9 gRNA/SpCas9 editing in primary cynomolgus hepatocytes (Tables 2, 22)
Assay type: cell-based, cynomolgus monkey
measurement_context: 500 ng/RNA/mL; SpCas9 mRNA MS002 1:1 by weight
m = 2'-O-methyl; r = 2'-OH (RNA)
Expressed in %, but write only the number.

Some entries whose results are on file:
>  <molecule>
GA208: PCSK9 gRNA; protospacer CCAGCATACAGAGTGACCAC (SEQ ID NO: 202) (nucleic acid, sugars from the 5' end m3 r94 m3, linkages s3 o93 s3 (s phosphorothioate, o phosphodiester), T or U not given here) guide: CCAGCAUACAGAGUGACCACGUUUUAGAGCUAGAAAUAGCAAGUUAAAAUAAGGCUAGUCCGUUAUCAACUUGAAAAAGUGGCACCGAGUCGGUGCUUUU

>  <reported_property>
Cyno Primary Hepatocyte Editing % 500

>  <value>
6.01

$$$$
>  <molecule>
GA229: PCSK9 gRNA; protospacer GTCGTGCTGGTCACCGCTGC (SEQ ID NO: 223) (nucleic acid, sugars from the 5' end m3 r94 m3, linkages s3 o93 s3 (s phosphorothioate, o phosphodiester), T or U not given here) guide: GUCGUGCUGGUCACCGCUGCGUUUUAGAGCUAGAAAUAGCAAGUUAAAAUAAGGCUAGUCCGUUAUCAACUUGAAAAAGUGGCACCGAGUCGGUGCUUUU

>  <reported_property>
Cyno Primary Hepatocyte Editing % 500

>  <value>
5.39

$$$$

Turning now to a further molecule:
So what does the record say about Cyno Primary Hepatocyte Editing % 500 for GA201: PCSK9 gRNA; protospacer CAGCATACAGAGTGACCACC (SEQ ID NO: 195) (nucleic acid, sugars from the 5' end m3 r94 m3, linkages s3 o93 s3 (s phosphorothioate, o phosphodiester), T or U not given here) guide: CAGCAUACAGAGUGACCACCGUUUUAGAGCUAGAAAUAGCAAGUUAAAAUAAGGCUAGUCCGUUAUCAACUUGAAAAAGUGGCACCGAGUCGGUGCUUUU ?
14.37
